Just for reference, PubChem BioAssay is where these values come from.

MEASUREMENT NOTES: small molecules captured by biotinylated probe aFSTL3 – biochemical, small-molecule microarray, fluorescence 635/667, stem cell growth factor project, primary screen (AID 1064);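 further: measures binding of the biotinylated anti-FSTL3 antibody to printed compounds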
ASSAY CONTEXT: higher = more signal
Binary classification by composite z-score, with 0.3 as an inclusive lower bound for Y; all other cases are N.

# MOLECULE, CATEGORY
rows = [
    ("C=CC[C@@]1(C(=O)NCCN2CCOCC2)N=C(c2ccc(OCCCO)cc2)O[C@@H]1c1ccccc1CN=[N+]=[N-]", "Y"),
    ("COc1ccccc1CN1C(=O)c2ccccc2[C@](Cc2ccccc2I)(C(=O)NCc2ccccc2)[C@@H]1c1ccc(CO)cc1", "Y"),
    ("CC1(C)C(=O)C(c2ccccc2)=C2CN3C(=O)N(CCc4ccccc4)C(=O)C3(Cc3ccccc3)C=C21 (stereo not drawn)", "N"),
    ("Oc1ccc2cc[n+](Cc3cccc(OC(F)(F)F)c3)cc2c1", "N"),
    ("CC1CC/C=C\\[C@H]2OC34C=CCN(c5ccc6ccccc6c5)C(=O)[C@H]3N(CCCCCO)C(=O)[C@@H]4C2C(=O)O1 (stereo partly drawn)", "N"),
    ("COc1ccc([Si](C)(C)[C@@H]2[C@@H](CCO)O[C@]3(C(=O)N(Cc4cccc(N(C=O)c5ccccc5)c4)c4ccccc43)[C@H]2C)cc1", "Y"),
    ("Cc1cc(C)c(C(O)C2C=CC3C(=O)NC(=O)C3N2Nc2ccccn2)c(C)c1 (stereo not drawn)", "Y"),
    ("CN1C(=O)C2C=CC(C(O)C=Cc3ccc([N+](=O)[O-])cc3)N(N3CCCCC3)C2C1=O (stereo not drawn)", "Y"),
    ("CCOC1=C2C(c3ccc(C)cc3)N(S(=O)(=O)c3ccc(C)cc3)CC2n2c(=O)n(-c3ccccc3)c(=O)n2C1 (stereo not drawn)", "N"),
    ("O=C1O[C@@H](c2ccccc2)[C@@H](c2ccccc2)N2[C@@H](c3ccccc3OCCO)[C@]3(C(=O)Nc4ccc(C#CC5(O)CCCCCC5)cc43)[C@@H](C(=O)NC[C@H](O)c3ccccc3)[C@H]12", "Y"),
    ("CN(C)CCCCNC(=O)[C@@H]1C[C@@H]2C(=O)N[C@@H](CCCCN)C(=O)N2[C@@H]1c1cccc(OCCO)c1", "Y"),
    ("CC(C)N1C(=O)c2ccccc2[C@](C)(C(=O)NCCCN(C)C)[C@@H]1c1ccc(CO)cc1", "N"),
    ("Cc1ccc(N2C(=O)c3ccccc3[C@@H](C(=O)NC(C)C)[C@@H]2c2ccc(CO)cc2)nc1", "Y"),
    ("Cc1ccc(S(=O)(=O)N2CC(C(=O)O)=CCC2c2ccccc2)cc1 (stereo not drawn)", "Y"),
    ("C=CC[C@@]1(C(=O)NCc2ccccc2)N=C(c2ccc(OCCCO)cc2)O[C@@H]1c1ccccc1CN=[N+]=[N-]", "Y"),
    ("O=C(NCC(O)CO)[C@@]1(Cc2ccccc2)COC(c2ccc(OCCCO)cc2)=N1 (stereo partly drawn)", "N"),
    ("CN1C(=O)C2C=CC(C(O)C3=C[C@H]4C[C@@H](C3)C4(C)C)N(Nc3ccc([N+](=O)[O-])cc3[N+](=O)[O-])C2C1=O (stereo partly drawn)", "Y"),
    ("COc1ccc(C(=O)Nc2cccc(CN3C(=O)[C@@]4(O[C@@H](CCn5cc([C@H](O)c6ccccc6)nn5)[C@H]([Si](C)(C)c5ccc(OC)cc5)[C@H]4C)c4ccccc43)c2)cc1", "Y"),
]
